These measurements were taken from patent US20050080090A1.

The following compounds are shown together with reported melting point values.
Structures can show the parent of a compound that is named as a salt.
Reported property: melting point

[[record]]
compound = "CN1CCCC(c2cccc3ccc(NC(=O)c4ccccc4)cc23)C1 (centres unmarked) (as salt: HCl)"
result = "140 to 170 °C"

[[record]]
compound = "CN1CCN(c2cccc3ccc(NC(=O)c4ccc(Cl)cc4)cc23)CC1"
result = "174 to 175 °C"

[[record]]
compound = "CN1CCN(c2cccc3ccc(OS(=O)(=O)C(F)(F)F)cc23)CC1"
result = "70 to 71 °C"

[[record]]
compound = "CN1CCCC(c2cccc3ccc(N)cc23)C1 (centres unmarked)"
result = "117 to 120 °C"

[[record]]
compound = "Cl.O=CNc1ccc2cccc(C[C@H]3CCCN3)c2c1"
result = "223.5 to 224 °C"

[[record]]
compound = "CN1CCN(c2cccc3ccc(NC(=O)Nc4ccccc4)cc23)CC1"
result = "213 to 214 °C"

[[record]]
compound = "CN1CCN(c2cccc3ccc(NC(=O)C(F)(F)F)cc23)CC1"
result = "159 to 160 °C"

[[record]]
compound = "CN1CCN(c2cccc3ccc(OCc4ccccc4)cc23)CC1"
result = "81.5 to 82.5 °C"

[[record]]
compound = "CN1CCN(c2cccc3ccc(NC(=O)OCc4ccccc4)cc23)CC1"
result = "143 to 144 °C"

[[record]]
compound = "c1cc(N2CCNCC2)c2cc(-n3cnc4ncccc43)ccc2c1 (as salt: hydrochloride)"
result = "> 250 °C"

[[record]]
compound = "CN1CCN(c2cccc3ccc(NC(=O)c4cc([N+](=O)[O-])cc([N+](=O)[O-])c4)cc23)CC1"
result = "254 to 256 °C"

[[record]]
compound = "CN1CCN(c2cccc3ccc(OC(=O)c4ccccc4)cc23)CC1"
result = "82 to 82.5 °C"

[[record]]
compound = "CN1CCN(c2cccc3ccc(-c4cccc(NS(C)(=O)=O)c4)cc23)CC1"
result = "100 to 101 °C"

[[record]]
compound = "CCN1CCN(c2cccc3ccc(NC(=O)c4ccc(Cl)cc4)cc23)CC1"
result = "173 to 174.5 °C"

[[record]]
compound = "CN1CCN(c2cccc3ccc(NC(=O)c4cccc(Cl)c4)cc23)CC1"
result = "147 to 148 °C"

[[record]]
compound = "c1cc(N2CCNCC2)c2cc(-n3nnc4ncccc43)ccc2c1 (as salt: hydrochloride)"
result = "> 250 °C"

[[record]]
compound = "CN1CCN(c2cccc3ccc(C(O)c4ccccc4)cc23)CC1 (centres unmarked)"
result = "162.5 to 163 °C"

[[record]]
compound = "CC(=O)Nc1cccnc1Nc1ccc2cccc(N3CCN(C)CC3)c2c1"
result = "110 to 114 °C (dec.)"

[[record]]
compound = "CN1CCN(c2cccc3ccc(Nc4ccccc4[N+](=O)[O-])cc23)CC1"
result = "87 to 94 °C"

[[record]]
compound = "CN1CCN(c2cccc3ccc(N)cc23)CC1"
result = "157 to 159 °C"


---

melting point for assorted molecules
Counter-ions that a name gives are not always drawn.
Reported property: melting point

[[record]]
molecule = "CN1CCN(c2cccc3ccc(-n4cnc5ccccc54)cc23)CC1"
result = "148 to 150 °C"

[[record]]
molecule = "CN1CCN(c2cccc3ccc(OCc4ccc(Cl)c(Cl)c4)cc23)CC1"
result = "113 to 114 °C"

[[record]]
molecule = "CNS(=O)(=O)c1cccc(-c2ccc3cccc(N4CCN(C)CC4)c3c2)c1"
result = "147.5 to 148 °C"

[[record]]
molecule = "O=C(Nc1ccc2cccc(N3CCNCC3)c2c1)c1ccccc1"
result = "141.5 to 144 °C"

[[record]]
molecule = "COCCN1CCN(c2cccc3ccc(NC(=O)c4ccc(Cl)cc4)cc23)CC1 (as salt: hydrochloride)"
result = "134 to 148 °C"

[[record]]
molecule = "CN1CCN(c2cccc3ccc(-n4cnc5ncccc54)cc23)CC1"
result = "107 to 112 °C"

[[record]]
molecule = "CN1CCN(c2cccc3ccc(NCc4ccccc4)cc23)CC1"
result = "115 to 117 °C"

[[record]]
molecule = "COc1cccc(-c2ccc3cccc(N4CCN(C)CC4)c3c2)c1 (as salt: hydrochloride)"
result = "236 to 238 °C"

[[record]]
molecule = "CN1CCN(c2cccc3ccc(Nc4ncccc4N)cc23)CC1 (hydrate or solvate)"
result = "198 to 200 °C"

[[record]]
molecule = "CN1CCN(c2cccc3ccc(Nc4ccc([N+](=O)[O-])cc4[N+](=O)[O-])cc23)CC1"
result = "153 to 154 °C"

[[record]]
molecule = "CN1CCN(c2cccc3ccc(NC(=O)c4cccc([N+](=O)[O-])c4)cc23)CC1"
result = "182 to 184 °C"

[[record]]
molecule = "CN1CCN(c2cccc3ccc(NCc4cccc5ccccc45)cc23)CC1"
result = "140 to 141 °C"

[[record]]
molecule = "CN1CCN(c2cccc3ccc(C(=O)NCc4ccc(Cl)cc4)cc23)CC1"
result = "72 to 74 °C"

[[record]]
molecule = "CCCCCC(=O)Nc1ccc2cccc(N3CCN(C)CC3)c2c1"
result = "144 to 146 °C"

[[record]]
molecule = "CN1CCN(c2cccc3ccc(C(O)(c4ccccc4)c4ccccc4)cc23)CC1"
result = "217.5 to 218.5 °C"

[[record]]
molecule = "CN1CCN(c2cccc3ccc(OCc4cccc(Cl)c4)cc23)CC1"
result = "67.5 to 68 °C"

[[record]]
molecule = "CN1CCC(c2cccc3ccc(NC(=O)c4ccccc4)cc23)C1 (stereo not shown)"
result = "137 to 145 °C"

[[record]]
molecule = "CN1CCN(c2cccc3ccc(Nc4ncccc4[N+](=O)[O-])cc23)CC1"
result = "127.5 to 129 °C"

[[record]]
molecule = "CN1CCN(c2cccc3ccc(Nc4ccc([N+](=O)[O-])cn4)cc23)CC1"
result = "121 to 125 °C"

[[record]]
molecule = "CN1CCN(c2cccc3ccc(Nc4ncccc4NC(=O)c4ccccc4)cc23)CC1"
result = "205 to 207 °C"

[[record]]
molecule = "CN1CCN(c2cccc3ccc(OCc4ccc(Cl)cc4)cc23)CC1"
result = "111.5 to 112 °C"

[[record]]
molecule = "CN1CCN(c2cccc3ccc(NC(=O)c4ccc(O)cc4)cc23)CC1"
result = "156 to 160 °C"

[[record]]
molecule = "CCCN1CCN(c2cccc3ccc(NC(=O)c4ccc(Cl)cc4)cc23)CC1"
result = "130 to 132 °C"

[[record]]
molecule = "CC(=O)Nc1ccc2cccc(N3CCN(C)CC3)c2c1"
result = "177 to 180 °C"

[[record]]
molecule = "CN1CCN(c2cccc3ccc(OC(=O)c4ccc(Cl)cc4)cc23)CC1"
result = "110 to 111 °C"

[[record]]
molecule = "CN1CCN(c2cccc3ccc(OCc4ccc(C(F)(F)F)cc4)cc23)CC1 (as salt: hydrochloride)"
result = "205 to 206 °C"

[[record]]
molecule = "CN1CCN(c2cccc3ccc(Nc4nc(Cc5ccccc5)cs4)cc23)CC1"
result = "157 to 160 °C"

[[record]]
molecule = "CN1CCC(c2cccc3ccc(N)cc23)CC1"
result = "169.5 to 171 °C"

[[record]]
molecule = "CN1CCN(c2cccc3ccc(NC(=O)c4cccc(C#N)c4)cc23)CC1"
result = "220 to 222 °C"

[[record]]
molecule = "CN1CCN(c2cccc3ccc(NC(=O)c4ccccc4)cc23)CC1"
result = "173 to 175 °C"

[[record]]
molecule = "Nc1ccc2cccc(N3CCNCC3)c2c1"
result = "184 to 186 °C"

[[record]]
molecule = "O=C(Nc1ccc2cccc(C[C@H]3CCCN3)c2c1)c1ccc(Cl)cc1 (as salt: HCl)"
result = "230 to 231.5 °C"

[[record]]
molecule = "CN1CCN(c2cccc3ccc(C(=O)c4ccccc4)cc23)CC1"
result = "124 to 124.5 °C"

[[record]]
molecule = "CN1CCCC(c2cccc3ccc(-n4cnc5ncccc54)cc23)C1 (stereo not shown) (as salt: HCl)"
result = "> 250 °C"

